Test: Phase 1/2 clinical study: pharmacokinetics in cancer patients
Format: in vivo, human
Settings: human, plasma, oral; 250 mg; 1 hr; read-out: Mean patient plasma CONC (SD)
Quantity kind: concentration at 1 h (ng/mL)
Report only the number, with the unit ng/mL understood.

According to the records, this molecule COc1ccc(F)cc1C(=O)NCc1ccc(-c2nn([C@@H](C)C(F)(F)F)c(N)c2C(N)=O)cc1 displays concentration at 1 h of 6910

---

Target: UniProt:Q06187
Sequence (Q06187 whole entry): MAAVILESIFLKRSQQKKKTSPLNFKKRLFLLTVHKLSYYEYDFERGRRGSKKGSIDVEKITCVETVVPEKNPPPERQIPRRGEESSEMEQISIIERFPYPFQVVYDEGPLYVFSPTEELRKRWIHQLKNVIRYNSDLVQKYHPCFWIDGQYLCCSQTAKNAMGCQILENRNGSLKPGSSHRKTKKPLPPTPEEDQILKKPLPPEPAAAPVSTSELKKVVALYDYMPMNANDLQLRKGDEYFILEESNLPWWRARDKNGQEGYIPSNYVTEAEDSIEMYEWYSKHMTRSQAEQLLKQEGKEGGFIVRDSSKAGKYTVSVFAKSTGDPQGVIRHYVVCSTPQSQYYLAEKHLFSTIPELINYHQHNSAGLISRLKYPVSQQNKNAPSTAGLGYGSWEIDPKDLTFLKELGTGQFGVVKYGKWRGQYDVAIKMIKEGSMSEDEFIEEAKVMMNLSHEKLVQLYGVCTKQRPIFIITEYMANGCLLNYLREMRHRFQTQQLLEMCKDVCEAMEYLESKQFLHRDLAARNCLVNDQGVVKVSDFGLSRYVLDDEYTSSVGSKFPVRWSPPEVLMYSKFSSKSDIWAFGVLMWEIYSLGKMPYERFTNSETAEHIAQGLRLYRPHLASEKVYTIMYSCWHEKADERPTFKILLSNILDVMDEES
Assay: BTK Y223 autophosphorylation in HEK293 cells expressing BTK wild type
Settings: expressed as plasma concentration; read-out: IC50, inhibition of BTK in vitro
Quantity kind: IC50 (nM)
Give the value, in units of nM, as a plain number.

The reported IC50 of the compound COc1ccc(F)cc1C(=O)NCc1ccc(-c2nn([C@@H](C)C(F)(F)F)c(N)c2C(N)=O)cc1 was 192

---

Assay: Phase 1/2 clinical study: pharmacokinetics in cancer patients
Assay type: in vivo, human
Details: human, plasma, oral; 25 mg QD; steady state (Cycle 1 Day 8); N=5; read-out: Tmax Median (min, max)
Quantity kind: Tmax (h)
Expressed in h, but write only the number.

// Tmax value for COc1ccc(F)cc1C(=O)NCc1ccc(-c2nn([C@@H](C)C(F)(F)F)c(N)c2C(N)=O)cc1 : 2

---

Assay: Phase 1/2 clinical study: pharmacokinetics in cancer patients
Type: in vivo, human
Details: human, plasma, oral; 200 mg QD; steady state (Cycle 1 Day 8); N=99; read-out: Cmax Geo mean (% CV)
Quantity kind: Cmax
For clarity, give the value followed by its unit.

What the record says about COc1ccc(F)cc1C(=O)NCc1ccc(-c2nn([C@@H](C)C(F)(F)F)c(N)c2C(N)=O)cc1 [BTK-I] : Cmax is 5770 ng/mL

---

Test: Phase 1/2 clinical study: pharmacokinetics in cancer patients
Format: in vivo, human
Settings: human, plasma, oral; 100 mg QD; steady state (Cycle 1 Day 8); N=9; read-out: Cmax Geo mean (% CV)
Quantity kind: Cmax (ng/mL)
Dear colleague, please return just the value in ng/mL, with no unit written.

Item: COc1ccc(F)cc1C(=O)NCc1ccc(-c2nn([C@@H](C)C(F)(F)F)c(N)c2C(N)=O)cc1 [BTK-I] | Cmax: 3910

---

Experiment: Phase 1/2 clinical study: pharmacokinetics in cancer patients
Format: in vivo, human
Settings: human, plasma, oral; 200 mg; 1 hr; read-out: Mean patient plasma CONC (SD)
Quantity kind: concentration at 1 h (ng/mL)
Kindly provide the numeric value in ng/mL only, without the unit symbol.

// sample COc1ccc(F)cc1C(=O)NCc1ccc(-c2nn([C@@H](C)C(F)(F)F)c(N)c2C(N)=O)cc1 , its concentration at 1 h was 4940

---

Experiment: Phase 1/2 clinical study: pharmacokinetics in cancer patients
Assay type: in vivo, human
Conditions: human, plasma, oral, 300 mg, 300 mg QD; steady state (Cycle 1 Day 8); N=17; read-out: AUC0-24 Geo mean (% CV)
Quantity kind: AUC(0-t) (µg·h/mL)
Unit µg·h/mL implied. Number only.

Lab note: measured AUC(0-t) of COc1ccc(F)cc1C(=O)NCc1ccc(-c2nn([C@@H](C)C(F)(F)F)c(N)c2C(N)=O)cc1 was 158

---

Test: Phase 1/2 clinical study: pharmacokinetics in cancer patients
Assay type: in vivo, human
Conditions: human, plasma, oral; 50 mg QD; steady state (Cycle 1 Day 8); N = 5; % CV 39.6%; read-out: T1/2 Geo mean (% CV) (converted)
Quantity kind: half-life
Give the number first and the unit second.

Entry COc1ccc(F)cc1C(=O)NCc1ccc(-c2nn([C@@H](C)C(F)(F)F)c(N)c2C(N)=O)cc1 [BTK-I] ; half-life = 17.6 h

---

Experiment: Phase 1/2 clinical study: pharmacokinetics in cancer patients
Type: in vivo, human
Details: human, plasma, oral; 100 mg QD; steady state (Cycle 1 Day 8); N = 8; % CV 33.9%; read-out: T1/2 Geo mean (% CV) (converted)
Quantity kind: half-life (h)
# output: bare number, implied unit h

Short answer for COc1ccc(F)cc1C(=O)NCc1ccc(-c2nn([C@@H](C)C(F)(F)F)c(N)c2C(N)=O)cc1 [BTK-I] : half-life was 22.2

---

Assay: Phase 1/2 clinical study: pharmacokinetics in cancer patients
Format: in vivo, human
Conditions: human, plasma, oral; 200 mg QD; steady state (Cycle 1 Day 8); N = 64; % CV 56.2%; read-out: T1/2 Geo mean (% CV) (converted)
Quantity kind: half-life

The compound listed as COc1ccc(F)cc1C(=O)NCc1ccc(-c2nn([C@@H](C)C(F)(F)F)c(N)c2C(N)=O)cc1 has a reported half-life of 19.9 h

---

Test: Phase 1/2 clinical study: pharmacokinetics in cancer patients
Format: in vivo, human
Details: human, plasma, oral; 25 mg; 8 hr; read-out: Mean patient plasma CONC (SD)
Quantity kind: concentration at 8 h (ng/mL)
Give a bare numeral; the unit ng/mL is implied.

Lab note: measured concentration at 8 h of COc1ccc(F)cc1C(=O)NCc1ccc(-c2nn([C@@H](C)C(F)(F)F)c(N)c2C(N)=O)cc1 was 495

---

Experiment: Phase 1/2 clinical study: pharmacokinetics in cancer patients
Assay type: in vivo, human
Settings: human, plasma, oral; 100 mg QD; steady state (Cycle 1 Day 8); N=9; read-out: Tmax Median (min, max)
Quantity kind: Tmax

The compound listed as COc1ccc(F)cc1C(=O)NCc1ccc(-c2nn([C@@H](C)C(F)(F)F)c(N)c2C(N)=O)cc1 has a reported Tmax of 2 h

---

Assay: Phase 1/2 clinical study: pharmacokinetics in cancer patients
Format: in vivo, human
Details: human, plasma, oral, 100 mg, 100 mg QD; steady state (Cycle 1 Day 8); N=9; read-out: AUC0-8 Geo mean (% CV)
Quantity kind: AUC(0-t)
Don't forget the unit after the value.

COc1ccc(F)cc1C(=O)NCc1ccc(-c2nn([C@@H](C)C(F)(F)F)c(N)c2C(N)=O)cc1 [BTK-I] has a reported AUC(0-t) of 22000 ng·h/mL

---

Assay: Phase 1/2 clinical study: pharmacokinetics in cancer patients
Type: in vivo, human
Details: human, plasma, oral; 25 mg QD; steady state (Cycle 1 Day 8); N=5; read-out: Cmax Geo mean (% CV)
Quantity kind: Cmax (ng/mL)
Reply numerically in ng/mL, unit not repeated.

Entry COc1ccc(F)cc1C(=O)NCc1ccc(-c2nn([C@@H](C)C(F)(F)F)c(N)c2C(N)=O)cc1 [BTK-I] ; Cmax = 734

---

Experiment: Phase 1/2 clinical study: pharmacokinetics in cancer patients
Assay type: in vivo, human
Details: human, plasma, oral; 50 mg; 24 hr (not measured, inferred based on predose); read-out: Mean patient plasma CONC (SD)
Source text: The study is an open-label, multi-center study of oral BTK-I to evaluate safety and efficacy as monotherapy and as part of combination therapy in patients with CLL/SLL and NHL who have failed or are intolerant to standard of care. This study includes monotherapy as well as combination treatment parts. The monotherapy part includes Phase 1 dose escalation and dose expansion as well as Phase 2. […]
Quantity kind: concentration at 24 h
Note to self: number, then unit, no commentary.

The compound COc1ccc(F)cc1C(=O)NCc1ccc(-c2nn([C@@H](C)C(F)(F)F)c(N)c2C(N)=O)cc1 showed concentration at 24 h equal to 571 ng/mL

---

Assay: Phase 1/2 clinical study: pharmacokinetics in cancer patients
Assay type: in vivo, human
Conditions: human, plasma, oral; 50 mg; 1 hr; read-out: Mean patient plasma CONC (SD)
Quantity kind: concentration at 1 h
Record the result as number plus unit.

GET /value?item= COc1ccc(F)cc1C(=O)NCc1ccc(-c2nn([C@@H](C)C(F)(F)F)c(N)c2C(N)=O)cc1 &field=concentration at 1 h returns 1150 ng/mL

---

Assay: Phase 1/2 clinical study: pharmacokinetics in cancer patients
Format: in vivo, human
Settings: human, plasma, oral; 250 mg; 4 hr; read-out: Mean patient plasma CONC (SD)
Excerpt: The study is an open-label, multi-center study of oral BTK-I to evaluate safety and efficacy as monotherapy and as part of combination therapy in patients with CLL/SLL and NHL who have failed or are intolerant to standard of care. This study includes monotherapy as well as combination treatment parts. The monotherapy part includes Phase 1 dose escalation and dose expansion as well as Phase 2. […]
Quantity kind: concentration at 4 h (ng/mL)
Respond with the bare value in ng/mL.

Reported concentration at 4 h ( COc1ccc(F)cc1C(=O)NCc1ccc(-c2nn([C@@H](C)C(F)(F)F)c(N)c2C(N)=O)cc1 ) = 6840

---

Assay: Phase 1/2 clinical study: pharmacokinetics in cancer patients
Type: in vivo, human
Details: human, plasma, oral; 200 mg QD; steady state (Cycle 1 Day 8); N=99; read-out: Tmax Median (min, max)
Quantity kind: Tmax (h)
# output: bare number, implied unit h

molecule COc1ccc(F)cc1C(=O)NCc1ccc(-c2nn([C@@H](C)C(F)(F)F)c(N)c2C(N)=O)cc1 [BTK-I] , Tmax observed: 2
